# tested-system: D(1A) dopamine receptor (Homo sapiens)
# experiment-notes: Agonist activity at D1 receptor (unknown origin) stably expressed in CHOK1 cells assessed as induction of beta-arrestin recruitment measured after 90 mins by luminescence assay
# Assay type: cell-based
Calls of active or inactive are those of the source. No cut-off for these calls is given here.
value-type: Activity

Sample answers from the record:
substance-smiles	Activity
Cc1cccc(NC(=O)CN2CCN(c3ncccn3)CC2)c1	inactive
Cc1cccc(NC(=O)CCN2CCN(c3ncccn3)CC2)c1	inactive
Cc1cccc(NC(=O)CCN2CCC(c3ccccn3)CC2)c1	inactive
Cc1cccc(NC(=O)CN2CCC(c3ccccn3)CC2)c1	inactive
Cc1cccc(NC(=O)CN2CCN(c3ccccn3)CC2)c1	inactive

Exam item: Param readout = Activity; param system = D(1A) dopamine receptor (Homo sapiens); param query = Cc1cccc(NC(=O)CCN2CCN(c3ccccn3)CC2)c1 ; response: value
Marked response: inactive

Exam item: D(1A) dopamine receptor (Homo sapiens) / Activity / Cc1cccc(NC(=O)CN2CCC(c3ccccc3)CC2)c1 : value?
Marked response: inactive

====

The reader will find reported Emax values listed item by item below.
# tested-system: D(3) dopamine receptor (Homo sapiens, UniProt P35462)
# Sequence (P35462 whole entry): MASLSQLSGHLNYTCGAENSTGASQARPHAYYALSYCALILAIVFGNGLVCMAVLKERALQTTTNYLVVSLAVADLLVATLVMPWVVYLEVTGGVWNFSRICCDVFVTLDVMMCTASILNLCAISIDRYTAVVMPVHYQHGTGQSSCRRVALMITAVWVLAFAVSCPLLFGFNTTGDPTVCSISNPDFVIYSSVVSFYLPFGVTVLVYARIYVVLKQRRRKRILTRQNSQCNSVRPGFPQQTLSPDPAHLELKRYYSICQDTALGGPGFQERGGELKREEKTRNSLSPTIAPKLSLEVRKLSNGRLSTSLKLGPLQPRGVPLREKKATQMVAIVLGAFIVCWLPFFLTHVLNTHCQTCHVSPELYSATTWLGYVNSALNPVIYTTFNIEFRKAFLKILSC
# experiment-notes: Agonist activity at human D3 receptor expressed in CHOK1 cells assessed as induction of beta-arrestin recruitment measured after 90 mins by luminescence assay relative to control
# Format: cell-based
Note: unit % is implicit; provide only the numeric part.

Consider the worked cases shown below.
substance-smiles	Emax [%]
CCc1cccc(NC(=O)CN2CCN(c3ccccn3)CC2)c1	44.7
Cc1cccc(NC(=O)CCN2CCC(c3ccccn3)CC2)c1	55.4
Cc1cccc(NC(=O)CN2CCN(c3ccccn3)CC2)c1	49.4
Cc1cccc(NC(=O)CCN2CCN(c3ccccn3)CC2)c1	41.4

Now for another entry.
Exam item: Recorded Emax of Cc1cccc(NC(=O)CN2CCN(c3ncccn3)CC2)c1 , please.
Marked response: 58.4

====

Listing: Emax of selected molecules
# tested-system: D(4) dopamine receptor (Homo sapiens) (UniProt P21917)
# Sequence (P21917 whole entry): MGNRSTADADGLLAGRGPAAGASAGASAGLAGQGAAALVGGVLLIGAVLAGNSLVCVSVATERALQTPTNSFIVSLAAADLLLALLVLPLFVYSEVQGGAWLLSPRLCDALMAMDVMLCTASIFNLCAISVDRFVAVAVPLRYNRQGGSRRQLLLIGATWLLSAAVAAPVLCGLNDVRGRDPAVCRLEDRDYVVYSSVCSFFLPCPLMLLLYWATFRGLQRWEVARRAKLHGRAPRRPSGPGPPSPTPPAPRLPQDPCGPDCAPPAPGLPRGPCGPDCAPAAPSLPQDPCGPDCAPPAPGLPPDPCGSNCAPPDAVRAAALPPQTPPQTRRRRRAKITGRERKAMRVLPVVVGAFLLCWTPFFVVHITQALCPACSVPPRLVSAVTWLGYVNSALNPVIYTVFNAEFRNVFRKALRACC
# experiment-notes: Agonist activity at human D4 receptor expressed in CHOK1 cells assessed as inhibition of forskolin-induced cAMP accumulation measured after 30 mins by Eu-cAMP tracer based TR-FRET assay relative to dopamine
# Type: functional, cell-based
Reply with just the number (in %).

substance-smiles	tested-system	Emax / %
Cc1cccc(NC(=O)CN2CCN(c3ccccn3)CC2)c1	D(4) dopamine receptor (Homo sapiens) (UniProt P21917)	64.2
Cc1cccc(NC(=O)CN2CCN(c3cccc4ccccc34)CC2)c1	D(4) dopamine receptor (Homo sapiens) (UniProt P21917)	27.8

Exam item: Please report the recorded Emax for Cc1cccc(NC(=O)CN2CCC(c3ccccc3)CC2)c1 .
Marked response: 32.9

Exam item: Record request: Emax value, item CCc1cccc(NC(=O)CN2CCN(c3ccccn3)CC2)c1
Marked response: 58

Exam item: Give its Emax value. Item: Cc1cccc(NC(=O)CN2CCN(c3ncccn3)CC2)c1
Marked response: 64.6

Exam item: # get_value(readout='Emax', item= O=C(CN1CCN(c2ccccn2)CC1)Nc1cccnc1 )
Marked response: 47.3

Exam item: Emax for Cc1cccc(NC(=O)CN2CCC(c3ccccn3)CC2)c1 ?
Marked response: 61.9

====

# tested-system: D(4) dopamine receptor (Homo sapiens)
# Sequence (P21917 whole entry): as above
# experiment-notes: Antagonist activity at human D4 receptor expressed in CHOK1 cells assessed as suppression of dopamine-induced inhibition of forskolin-stimulated cAMP accumulation measured after 30 mins by Eu-cAMP tracer based TR-FRET assay
# Assay type: functional, cell-based
pIC50: −log10 of the molar value.
If the reported pIC50 equals or exceeds 6, assign yes (1). If not, assign no (0).

substance-smiles	tested-system	assigned-category
O=C(CN1CCN(c2ccccn2)CC1)Nc1cncnc1	D(4) dopamine receptor (Homo sapiens)	no (0)
Cc1cccc(NC(=O)CN2CCN(c3ncccn3)CC2)c1	D(4) dopamine receptor (Homo sapiens)	yes (1)

Exam item: pIC50 >= 6 for Cc1cccc(NC(=O)CCN2CCN(c3ncccn3)CC2)c1 ?
Marked response: no (0)

Exam item: Dear colleague, could you confirm whether Cc1cccc(NC(=O)CN2CCN(c3ccc(Cl)cn3)CC2)c1 has pIC50 at or above 6?
Marked response: no (0)

Exam item: Determine whether measured pIC50 meets or exceeds 6 for CCc1cccc(NC(=O)CN2CCN(c3ccc(Cl)cn3)CC2)c1
Marked response: no (0)

Exam item: decide whether the reported pIC50 for O=C(CN1CCN(c2ccc(Cl)cn2)CC1)Nc1cccnc1 is at least 6.
Marked response: no (0)

Exam item: For this compound, is measured pIC50 6 or higher? CCc1cccc(NC(=O)CN2CCC(c3ccccn3)CC2)c1
Marked response: no (0)
